Recorded values, source paper PMC2756588.

MEASURED_TARGET: T1, Bbc1, P47068
T1 sequence (P47068 1-78, looked up): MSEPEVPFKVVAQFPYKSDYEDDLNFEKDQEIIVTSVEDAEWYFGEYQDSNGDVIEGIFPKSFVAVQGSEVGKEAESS
ASSAY_OVERVIEW: SPOT array
TEST_CONTEXT: median of control spots 796
EXPERIMENTAL_ENDPOINT: SPOT intensity
No unit in the answer, only the number.

For YYNRQELALPKRMSS , write its SPOT intensity.
8

For VPVAPPPPPASLGQS , write its SPOT intensity.
0

For TTAPALPSLPPPPLL , write its SPOT intensity.
0
